subject of test: FGFR1 (Homo sapiens (Human), UniProt P11362)
Sequence (P11362 22-822): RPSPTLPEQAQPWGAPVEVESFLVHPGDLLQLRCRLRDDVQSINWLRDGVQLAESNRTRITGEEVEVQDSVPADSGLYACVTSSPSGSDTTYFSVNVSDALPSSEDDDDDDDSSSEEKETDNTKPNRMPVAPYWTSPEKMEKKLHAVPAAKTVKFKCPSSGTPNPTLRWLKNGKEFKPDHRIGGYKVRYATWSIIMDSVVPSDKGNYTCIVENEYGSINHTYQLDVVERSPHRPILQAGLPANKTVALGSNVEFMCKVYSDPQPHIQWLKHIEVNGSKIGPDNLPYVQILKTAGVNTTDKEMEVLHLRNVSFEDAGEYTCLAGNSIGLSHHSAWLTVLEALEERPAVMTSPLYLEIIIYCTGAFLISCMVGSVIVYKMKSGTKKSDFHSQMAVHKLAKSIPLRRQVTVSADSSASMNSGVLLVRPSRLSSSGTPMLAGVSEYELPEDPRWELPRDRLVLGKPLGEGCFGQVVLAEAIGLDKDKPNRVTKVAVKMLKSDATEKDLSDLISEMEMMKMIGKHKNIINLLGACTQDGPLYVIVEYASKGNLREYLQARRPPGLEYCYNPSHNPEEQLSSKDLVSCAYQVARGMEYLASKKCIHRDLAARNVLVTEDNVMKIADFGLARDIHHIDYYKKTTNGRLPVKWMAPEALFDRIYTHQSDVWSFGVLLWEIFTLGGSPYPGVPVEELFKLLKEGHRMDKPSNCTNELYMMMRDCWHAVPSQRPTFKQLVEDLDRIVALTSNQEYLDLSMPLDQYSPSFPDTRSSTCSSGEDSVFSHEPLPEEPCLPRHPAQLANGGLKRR
assay protocol: Kinase assay, binding constants (Kd), kinase-tagged T7 phage, qPCR
property: Kd

[[record]]
molecule = "Cc1ncc(Cl)c([C@@H](C)Oc2ccc3[nH]nc(-c4ccc(N5CC6(CCOC6)C5)nc4)c3c2)c1Cl"
property = "Kd"
reading = "20 to 100 nM"

[[record]]
molecule = "CCS(=O)(=O)N1CC2(CN(c3ccc(-c4n[nH]c5ccc(O[C@H](C)c6c(Cl)cncc6Cl)cc45)cn3)C2)C1"
property = "Kd"
reading = "20 to 100 nM"

[[record]]
molecule = "COc1cc(-c2n[nH]c3ccc(O[C@H](C)c4c(C)cnnc4C)cc23)cnc1N1CC2CC(C1)N2"
property = "Kd"
reading = "100 to 300 nM"

[[record]]
molecule = "C[C@@H](Oc1cc2c(-c3ccc(N4CC5(C4)CN(S(C)(=O)=O)C5)nc3)n[nH]c2cc1F)c1c(Cl)cnnc1Cl"
property = "Kd"
reading = "1 to 20 nM"


###

subject of test: FGFR4 (Homo sapiens (Human), UniProt P22455)
Sequence (P22455 22-802): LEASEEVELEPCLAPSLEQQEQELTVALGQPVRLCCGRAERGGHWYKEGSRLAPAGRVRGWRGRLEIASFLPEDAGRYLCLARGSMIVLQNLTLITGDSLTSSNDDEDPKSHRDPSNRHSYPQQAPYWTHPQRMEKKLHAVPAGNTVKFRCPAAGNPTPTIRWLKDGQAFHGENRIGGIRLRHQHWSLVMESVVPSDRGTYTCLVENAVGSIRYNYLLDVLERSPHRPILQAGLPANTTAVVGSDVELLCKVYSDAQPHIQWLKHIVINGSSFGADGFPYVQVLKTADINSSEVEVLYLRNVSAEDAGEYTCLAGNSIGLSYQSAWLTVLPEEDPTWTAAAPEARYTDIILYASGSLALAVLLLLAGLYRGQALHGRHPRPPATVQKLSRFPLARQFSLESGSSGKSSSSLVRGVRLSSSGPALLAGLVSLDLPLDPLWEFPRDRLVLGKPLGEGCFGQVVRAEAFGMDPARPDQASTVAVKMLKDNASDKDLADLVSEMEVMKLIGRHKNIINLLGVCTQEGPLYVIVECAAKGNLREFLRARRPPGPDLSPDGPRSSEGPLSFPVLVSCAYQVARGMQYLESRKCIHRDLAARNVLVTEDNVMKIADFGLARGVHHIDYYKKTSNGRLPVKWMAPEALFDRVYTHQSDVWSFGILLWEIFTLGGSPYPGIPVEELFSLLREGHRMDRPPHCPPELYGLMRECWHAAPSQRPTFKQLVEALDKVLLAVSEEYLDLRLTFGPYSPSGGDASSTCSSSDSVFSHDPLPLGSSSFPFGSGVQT
assay protocol: Kinase assay, binding constants (Kd), kinase-tagged T7 phage, qPCR
Quick reference: Kd of the listed items.
property: Kd

[[record]]
compound = "COc1cc2[nH]nc(-c3ccc(N4CC5(C4)CN(S(C)(=O)=O)C5)nc3)c2cc1O[C@H](C)c1c(Cl)cnnc1Cl [Example 261]"
property = "Kd"
reading = "1 to 20 nM"

[[record]]
compound = "C[C@@H](Oc1ccc2[nH]nc(-c3ccc(N4CC5(C4)CN(S(C)(=O)=O)C5)nc3)c2c1)c1c(Cl)cccc1Cl [Example 170]"
property = "Kd"
reading = "100 to 300 nM"

[[record]]
compound = "C[C@@H](Oc1ccc2[nH]nc(-c3cnc(N4CC[C@@H]4CO)c(C#N)c3)c2c1)c1c(Cl)cncc1Cl [Example 351]"
property = "Kd"
reading = "1 to 20 nM"

[[record]]
compound = "C[C@@H](Oc1ccc2[nH]nc(-c3cnc(N4CCC5(CC4)CCS(=O)(=O)C5)nc3)c2c1)c1c(Cl)cncc1Cl [Example 57]"
property = "Kd"
reading = "1 to 20 nM"

[[record]]
compound = "C[C@@H](Oc1ccc2[nH]nc(-c3cnc(N4CC(C)(N)C4)c(F)c3)c2c1)c1c(Cl)cncc1Cl [Example 265]"
property = "Kd"
reading = "1 to 20 nM"

[[record]]
compound = "CCN1CC[C@@H](n2cc(-c3n[nH]c4ccc(O[C@H](C)c5c(Cl)cncc5Cl)cc34)cn2)C1 [Example 91]"
property = "Kd"
reading = "20 to 100 nM"

[[record]]
compound = "C[C@@H](Oc1ccc2[nH]nc(-c3ccc(N4CC5(CCNC5)C4)nc3)c2c1)c1c(Cl)cncc1Cl [Example 164]"
property = "Kd"
reading = "1 to 20 nM"


###

subject of test: FGFR3 (Homo sapiens (Human), UniProt P22607)
Sequence (P22607 23-806): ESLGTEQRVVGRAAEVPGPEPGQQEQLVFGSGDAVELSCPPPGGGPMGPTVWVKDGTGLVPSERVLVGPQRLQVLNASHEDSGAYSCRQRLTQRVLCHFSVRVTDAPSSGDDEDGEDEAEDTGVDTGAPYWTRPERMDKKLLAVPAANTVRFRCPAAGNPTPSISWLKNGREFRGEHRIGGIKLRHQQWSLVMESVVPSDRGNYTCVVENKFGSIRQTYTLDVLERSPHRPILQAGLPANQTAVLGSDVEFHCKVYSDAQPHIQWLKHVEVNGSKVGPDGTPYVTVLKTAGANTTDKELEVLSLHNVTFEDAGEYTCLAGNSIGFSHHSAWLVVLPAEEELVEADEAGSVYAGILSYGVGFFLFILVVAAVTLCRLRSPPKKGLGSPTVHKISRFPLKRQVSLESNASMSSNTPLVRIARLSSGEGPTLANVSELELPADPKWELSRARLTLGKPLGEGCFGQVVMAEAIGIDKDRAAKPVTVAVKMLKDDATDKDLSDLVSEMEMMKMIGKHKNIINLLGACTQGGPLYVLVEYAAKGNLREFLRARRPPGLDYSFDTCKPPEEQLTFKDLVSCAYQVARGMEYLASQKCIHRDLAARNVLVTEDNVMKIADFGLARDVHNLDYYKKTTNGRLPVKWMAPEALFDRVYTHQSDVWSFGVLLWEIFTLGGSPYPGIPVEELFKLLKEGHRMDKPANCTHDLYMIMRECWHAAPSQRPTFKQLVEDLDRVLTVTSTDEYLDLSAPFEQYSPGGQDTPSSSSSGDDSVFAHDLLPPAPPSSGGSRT
assay protocol: Kinase assay, binding constants (Kd), kinase-tagged T7 phage, qPCR
property: Kd

[[record]]
compound = "C[C@@H](Oc1ccc2[nH]nc(-c3cnc(N4CC(O)C4)c(C#N)c3)c2c1)c1c(Cl)cnc(F)c1Cl"
property = "Kd"
reading = "100 to 300 nM"

[[record]]
compound = "C[C@@H](Oc1ccc2[nH]nc(-c3cnc(N4CC5(C4)CN(S(C)(=O)=O)C5)c(CN(C)C)c3)c2c1)c1c(Cl)cncc1Cl"
property = "Kd"
reading = "> 300 nM"

[[record]]
compound = "C[C@@H](Oc1ccc2[nH]nc(-c3cnc(N4CC(C(F)F)C4)c(C#N)c3)c2c1)c1c(Cl)cncc1Cl"
property = "Kd"
reading = "20 to 100 nM"

[[record]]
compound = "Cc1cc(-c2n[nH]c3ccc(O[C@H](C)c4c(C)cnnc4C)cc23)cnc1N1CCN2C(=O)NCC2C1 (some centres unmarked)"
property = "Kd"
reading = "1 to 20 nM"

[[record]]
compound = "COc1cc2[nH]nc(-c3cnc(N4CC5(C4)CN(S(C)(=O)=O)C5)nc3)c2cc1O[C@H](C)c1c(Cl)cncc1Cl"
property = "Kd"
reading = "1 to 20 nM"

[[record]]
compound = "CNCc1cc(-c2n[nH]c3cc(OC)c(O[C@H](C)c4c(Cl)cncc4Cl)cc23)cnc1N1CC2(C1)CN(S(C)(=O)=O)C2"
property = "Kd"
reading = "20 to 100 nM"

[[record]]
compound = "COc1cc2[nH]nc(-c3cnc(N4CC5(C4)CN(S(C)(=O)=O)C5)c(C#N)c3)c2cc1O[C@H](C)c1c(Cl)cncc1Cl"
property = "Kd"
reading = "1 to 20 nM"

[[record]]
compound = "Cc1ncc(Cl)c([C@@H](C)Oc2ccc3[nH]nc(-c4ccc(N5CC(C)(O)C5)nc4)c3c2)c1Cl"
property = "Kd"
reading = "1 to 20 nM"

[[record]]
compound = "C[C@@H](Oc1ccc2[nH]nc(-c3cnc(N4CC5(CCS(=O)(=O)C5)C4)nc3)c2c1)c1c(Cl)cncc1Cl"
property = "Kd"
reading = "1 to 20 nM"

[[record]]
compound = "Cc1ncc(Cl)c([C@@H](C)Oc2ccc3[nH]nc(-c4ccc(N5CC6(C5)CN(S(C)(=O)=O)C6)nc4)c3c2)c1Cl"
property = "Kd"
reading = "1 to 20 nM"

[[record]]
compound = "COc1cc2[nH]nc(-c3cnc(N4CC5(C4)CN(S(C)(=O)=O)C5)c(F)c3)c2cc1O[C@H](C)c1c(Cl)cncc1Cl"
property = "Kd"
reading = "1 to 20 nM"

[[record]]
compound = "Cc1cnnc(C)c1[C@@H](C)Oc1ccc2[nH]nc(-c3cnc(N4CC(O)C4)c(C#N)c3)c2c1"
property = "Kd"
reading = "20 to 100 nM"

[[record]]
compound = "C[C@@H](Oc1ccc2[nH]nc(-c3cnc(N4CCC[C@@H]4CO)c(C#N)c3)c2c1)c1c(Cl)cncc1Cl"
property = "Kd"
reading = "1 to 20 nM"

[[record]]
compound = "CCOC(=O)N1CCCC2(C1)CN(c1ccc(-c3n[nH]c4ccc(O[C@H](C)c5c(C)cnnc5C)cc34)cn1)C2"
property = "Kd"
reading = "1 to 20 nM"


###

subject of test: FGFR3 (Homo sapiens (Human), UniProt P22607)
assay protocol: Kinase assay, binding constants (Kd), kinase-tagged T7 phage, qPCR
property: Kd

[[record]]
compound = "CCS(=O)(=O)N1CCCC2(CN(c3ccc(-c4n[nH]c5ccc(O[C@H](C)c6c(C)cnnc6C)cc45)cn3)C2)C1 [Example 186]"
reading = "1 to 20 nM"

[[record]]
compound = "C[C@H](Oc1ccc2[nH]nc(-c3ccc(N4CC5(C4)CN(S(C)(=O)=O)C5)nc3)c2c1)c1c(Cl)cncc1Cl [Example 160]"
reading = "20 to 100 nM"

[[record]]
compound = "C[C@@H](Oc1ccc2[nH]nc(-c3ccc(N4CCN5CCC[C@@H]5C4)nc3)c2c1)c1c(Cl)cncc1Cl [Example 184]"
reading = "1 to 20 nM"

[[record]]
compound = "C[C@@H](Oc1ccc2[nH]nc(-c3ccc(N4CC5(CCS(=O)(=O)CC5)C4)nc3)c2c1)c1c(Cl)cncc1Cl [Example 113]"
reading = "1 to 20 nM"

[[record]]
compound = "C[C@@H](Oc1ccc2[nH]nc(-c3cnc(N4CCC5(CCC(=O)N5C)CC4)nc3)c2c1)c1c(Cl)cncc1Cl [Example 54]"
reading = "1 to 20 nM"

[[record]]
compound = "C[C@@H](Oc1ccc2[nH]nc(-c3cnc(N4CC5(CCN(S(C)(=O)=O)C5)C4)nc3)c2c1)c1c(Cl)cncc1Cl [Example 157]"
reading = "1 to 20 nM"

[[record]]
compound = "C[C@@H](Oc1ccc2[nH]nc(-c3cnc(N4CC5(CCNC5)C4)nc3)c2c1)c1c(Cl)cncc1Cl [Example 158]"
reading = "1 to 20 nM"

[[record]]
compound = "Cc1ncc(Cl)c([C@@H](C)Oc2ccc3[nH]nc(-c4cnc(N5CC6(CNC6)C5)nc4)c3c2)c1Cl [Example 179]"
reading = "1 to 20 nM"

[[record]]
compound = "C[C@@H](Oc1ccc2[nH]nc(-c3ccc(N4CCC5(CCN(C)C5)CC4)nc3)c2c1)c1c(Cl)cncc1Cl [Example 32]"
reading = "1 to 20 nM"

[[record]]
compound = "CCOC(=O)N1CC2(C1)CN(c1ccc(-c3n[nH]c4ccc(O[C@@H](C)c5c(C)cnnc5C)cc34)cn1)C2 [Example 151]"
reading = "20 to 100 nM"

[[record]]
compound = "C[C@@H](Oc1ccc2[nH]nc(-c3ccc(N4CCN5C[C@H](O)C[C@H]5C4)nc3)c2c1)c1c(Cl)cncc1Cl [Example 178]"
reading = "1 to 20 nM"

[[record]]
compound = "COc1cc(-c2n[nH]c3ccc(O[C@H](C)c4c(C)cnnc4C)cc23)cnc1N1CC2CC(C1)N2CC(C)(C)O [Example 323]"
reading = "> 300 nM"

[[record]]
compound = "COc1cc2[nH]nc(-c3cnc(N4CC[C@@H](O)C4)c(C#N)c3)c2cc1O[C@H](C)c1c(C)cnnc1C [Example 319]"
reading = "1 to 20 nM"

[[record]]
compound = "Cc1ncc(Cl)c([C@@H](C)Oc2cc3c(-c4cnc(N5CC6(C5)CN(S(C)(=O)=O)C6)c(F)c4)n[nH]c3cc2Cl)c1Cl [Example 270]"
reading = "1 to 20 nM"

[[record]]
compound = "C[C@@H](Oc1ccc2[nH]nc(-c3ccc(N4CC(C(F)(F)F)C4)nc3)c2c1)c1c(Cl)cncc1Cl [Example 249]"
reading = "1 to 20 nM"

[[record]]
compound = "CCS(=O)(=O)N1CC2(CN(c3ncc(-c4n[nH]c5ccc(O[C@H](C)c6c(Cl)cncc6Cl)cc45)cn3)C2)C1 [Example 128]"
reading = "1 to 20 nM"

[[record]]
compound = "C[C@@H](Oc1ccc2[nH]nc(-c3ccc(N4CC5CC(C4)N5)nc3)c2c1)c1c(Cl)cncc1Cl [Example 16]"
reading = "1 to 20 nM"

[[record]]
compound = "CCOC(=O)N1CC2(C1)CN(c1ccc(-c3n[nH]c4ccc(O[C@H](C)c5c(Cl)cnc(F)c5Cl)cc34)cn1)C2 [Example 196]"
reading = "1 to 20 nM"

[[record]]
compound = "C[C@@H](Oc1ccc2[nH]nc(-c3ccc(N4CCNCC4=O)nc3)c2c1)c1c(Cl)cncc1Cl [Example 37]"
reading = "1 to 20 nM"

[[record]]
compound = "COc1cc2[nH]nc(-c3cnc(N4CC5(COC5)C4)c(C)c3)c2cc1O[C@H](C)c1c(C)cnnc1C [Example 219]"
reading = "1 to 20 nM"

[[record]]
compound = "C[C@@H](Oc1ccc2[nH]nc(-c3cnc(N4CC[C@@H](C(C)(C)O)C4)c(C#N)c3)c2c1)c1c(Cl)cncc1Cl [Example 294]"
reading = "100 to 300 nM"

[[record]]
compound = "C[C@@H](Oc1ccc2[nH]nc(-c3ccc(N4CC5(CCCS(=O)(=O)C5)C4)nc3)c2c1)c1c(Cl)cncc1Cl [Example 159]"
reading = "1 to 20 nM"

[[record]]
compound = "Cc1cnnc(C)c1[C@@H](C)Oc1ccc2[nH]nc(-c3ccc(N4CC5(C4)CN(S(C)(=O)=O)C5)nc3)c2c1 [Example 148]"
reading = "1 to 20 nM"

[[record]]
compound = "COc1cc2[nH]nc(-c3cnc(N4CC[C@@H](C(C)(C)O)C4)c(C#N)c3)c2cc1O[C@H](C)c1c(C)cnnc1C [Example 321]"
reading = "1 to 20 nM"

[[record]]
compound = "C[C@@H](Oc1cc2c(-c3cnc(N4CC5(CCCN(S(C)(=O)=O)C5)C4)c(C#N)c3)n[nH]c2cc1F)c1c(Cl)cncc1Cl [Example 380]"
reading = "20 to 100 nM"

[[record]]
compound = "C[C@@H](Oc1ccc2[nH]nc(-c3ccc(N4CCC5(CCCN5C)CC4)nc3)c2c1)c1c(Cl)cncc1Cl [Example 33]"
reading = "1 to 20 nM"

[[record]]
compound = "C[C@@H](Oc1ccc2[nH]nc(-c3ccc(N4CCN(S(C)(=O)=O)C5(CC5)C4)nc3)c2c1)c1c(Cl)cncc1Cl [Example 22]"
reading = "1 to 20 nM"

